- Measurement parameters: in THF, 314.34 K
Endpoint name: solubility (mole fraction)

The measured solubility (mole fraction) associated with CCc1ccc(C(=O)c2ccccc2C(=O)O)cc1 reads 0.0246

---

- Measurement parameters: in n-propanol, 318.93 K
Endpoint name: solubility (mole fraction)
Write the number on its own, no unit after it.

The measured solubility (mole fraction) associated with CCc1ccc(C(=O)c2ccccc2C(=O)O)cc1 reads 0.223

---

- Measurement parameters: in 1,4-dioxane, 313.4 K
Endpoint name: solubility (mole fraction)
Write the number on its own, no unit after it.

The measured solubility (mole fraction) associated with CCc1ccc(C(=O)c2ccccc2C(=O)O)cc1 reads 0.0195

---

- Measurement parameters: in methanol, 285.6 K
Endpoint name: solubility (mole fraction)
Write the number on its own, no unit after it.

The measured solubility (mole fraction) associated with CCc1ccc(C(=O)c2ccccc2C(=O)O)cc1 reads 0.0827

---

- Measurement parameters: in n-propanol, 288.67 K
Endpoint name: solubility (mole fraction)
Write the number on its own, no unit after it.

The measured solubility (mole fraction) associated with CCc1ccc(C(=O)c2ccccc2C(=O)O)cc1 reads 0.0777

---

- Measurement parameters: in 1,4-dioxane, 293.97 K
Endpoint name: solubility (mole fraction)
Write the number on its own, no unit after it.

The measured solubility (mole fraction) associated with CCc1ccc(C(=O)c2ccccc2C(=O)O)cc1 reads 0.0066

---

- Measurement parameters: in NMP, 284.15 K
Endpoint name: solubility (mole fraction)
Write the number on its own, no unit after it.

The measured solubility (mole fraction) associated with CCc1ccc(C(=O)c2ccccc2C(=O)O)cc1 reads 0.175

---

- Measurement parameters: in 1,4-dioxane, 319.15 K
Endpoint name: solubility (mole fraction)
Write the number on its own, no unit after it.

The measured solubility (mole fraction) associated with CCc1ccc(C(=O)c2ccccc2C(=O)O)cc1 reads 0.024

---

- Measurement parameters: in 1,4-dioxane, 322.54 K
Endpoint name: solubility (mole fraction)
Write the number on its own, no unit after it.

The measured solubility (mole fraction) associated with CCc1ccc(C(=O)c2ccccc2C(=O)O)cc1 reads 0.0278

---

- Measurement parameters: in ethanol, 289.68 K
Endpoint name: solubility (mole fraction)

The measured solubility (mole fraction) associated with CCc1ccc(C(=O)c2ccccc2C(=O)O)cc1 reads 0.1

---

- Measurement parameters: in ethyl formate, 289.68 K
Endpoint name: solubility (mole fraction)
Write the number on its own, no unit after it.

The measured solubility (mole fraction) associated with CCc1ccc(C(=O)c2ccccc2C(=O)O)cc1 reads 0.0027

---

- Measurement parameters: in acetone, 310.39 K
Endpoint name: solubility (mole fraction)
Write the number on its own, no unit after it.

The measured solubility (mole fraction) associated with CCc1ccc(C(=O)c2ccccc2C(=O)O)cc1 reads 0.0087

---

- Measurement parameters: in DMF, 290.63 K
Endpoint name: solubility (mole fraction)
Write the number on its own, no unit after it.

The measured solubility (mole fraction) associated with CCc1ccc(C(=O)c2ccccc2C(=O)O)cc1 reads 0.382

---

- Measurement parameters: in NMP, 313.15 K
Endpoint name: solubility (mole fraction)
Write the number on its own, no unit after it.

The measured solubility (mole fraction) associated with CCc1ccc(C(=O)c2ccccc2C(=O)O)cc1 reads 0.315

---

- Measurement parameters: in THF, 286.49 K
Endpoint name: solubility (mole fraction)

The measured solubility (mole fraction) associated with CCc1ccc(C(=O)c2ccccc2C(=O)O)cc1 reads 0.0085
